Just for reference, ChEMBL document CHEMBL5136984 is where these values come from.

Here, each record is paired with measured GI50 data.
Test system: MDA-MB-231
Assay overview: Cytotoxicity against human MDA-MB-231 cells assessed as cell growth inhibition incubated for 72 hrs by Celltiter Glo assay
Assay type: functional, cell-based
Assay setup: MDA-MB-231, time 72 hrs
State the result as a value with its unit after it.

Consider the following illustrative entries.
Cn1c(=O)c(NC(=O)c2ccc(O)cc2)cc2cc(Br)ccc21    5790 nM
Cn1c(=O)c(NC(=O)c2ccc(OCCCCCCCCCCCC[P+](c3ccccc3)(c3ccccc3)c3ccccc3)cc2)cc2cc(Br)ccc21.[Br-]    11000 nM
Cn1c(=O)c(NC(=O)c2ccc(OCCCCC[P+](c3ccccc3)(c3ccccc3)c3ccccc3)cc2)cc2cc(Br)ccc21.[Br-]    83 nM

Task item: Recorded GI50 of Cn1c(=O)c(NC(=O)c2ccc(OCCCCCCC[P+](c3ccccc3)(c3ccccc3)c3ccccc3)cc2)cc2cc(Br)ccc21.[Br-] , please.
Reply: 65 nM

Task item: Recorded GI50 of Cn1c(=O)c(NC(=O)c2ccc(OCCCCCCCCCC[P+](c3ccccc3)(c3ccccc3)c3ccccc3)cc2)cc2cc(Br)ccc21.[Br-] , please.
Reply: 8 nM
